Just for reference, patent US20150376269A1 is where these values come from.

- System under test: T1, serum resistance-associated protein (SRA) from Trypanosoma brucei rhodesiense, recombinant SRA (SEQ ID NO: … (Trypanosoma brucei rhodesiense, UniProt O96637 31-274))
- T1 construct: also called SRA protein
- T1 sequence: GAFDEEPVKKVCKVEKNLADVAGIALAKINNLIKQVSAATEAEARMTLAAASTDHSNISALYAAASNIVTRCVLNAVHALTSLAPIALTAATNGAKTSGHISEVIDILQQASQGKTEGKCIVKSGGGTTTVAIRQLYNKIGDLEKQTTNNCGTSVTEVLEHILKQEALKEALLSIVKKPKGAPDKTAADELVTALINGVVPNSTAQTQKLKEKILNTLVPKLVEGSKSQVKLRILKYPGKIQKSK
- Assay protocol: SPR, mAb captured, 50 nM SRA, pH 4.5, 25C
Property label: 50 nM SRA binding (RU)
Please reply with the bare figure in RU and do not write the unit itself.

Guide cases for 50 nM SRA binding (RU), answers given:
{"Binder": "H1H10064P (antibody, V domains shown, Fully human antibody with human IgG1 Fc (prefix H1H)) VH: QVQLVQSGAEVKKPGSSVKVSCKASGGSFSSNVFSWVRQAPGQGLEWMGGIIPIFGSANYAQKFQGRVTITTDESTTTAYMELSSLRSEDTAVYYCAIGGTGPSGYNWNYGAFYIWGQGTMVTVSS VL: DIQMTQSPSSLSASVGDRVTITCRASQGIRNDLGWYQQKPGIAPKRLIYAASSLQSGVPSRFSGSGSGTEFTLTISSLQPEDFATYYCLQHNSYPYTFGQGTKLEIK", "50 nM SRA binding (RU)": 76}
{"Binder": "H1H10069P (antibody, V domains shown, Fully human antibody with human IgG1 Fc (prefix H1H)) VH: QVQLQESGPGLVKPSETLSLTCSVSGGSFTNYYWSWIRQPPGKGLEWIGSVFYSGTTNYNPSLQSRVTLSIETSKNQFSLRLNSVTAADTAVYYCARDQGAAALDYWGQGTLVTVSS VL: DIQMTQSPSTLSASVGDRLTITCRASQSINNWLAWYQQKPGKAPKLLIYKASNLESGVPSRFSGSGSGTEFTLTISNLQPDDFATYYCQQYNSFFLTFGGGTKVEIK", "50 nM SRA binding (RU)": 54}

We next turn to a different binder, shown below.
[Q] Dear colleague, I am looking for the recorded 50 nM SRA binding (RU) of the following binder: H2aM10285N (antibody, V domains shown, Chimeric antibody, human variable domains and mouse constant domains (mouse Fc, prefix H2aM); also called H2M10285N) VH: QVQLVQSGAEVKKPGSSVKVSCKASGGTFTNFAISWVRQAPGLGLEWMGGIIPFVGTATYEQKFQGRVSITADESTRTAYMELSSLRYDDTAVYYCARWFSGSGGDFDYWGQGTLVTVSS VL: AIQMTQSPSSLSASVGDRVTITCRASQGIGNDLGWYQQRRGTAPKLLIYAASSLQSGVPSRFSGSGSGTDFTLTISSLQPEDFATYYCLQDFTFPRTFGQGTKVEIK
[A] 120
